- method: AUC (0 to 8 hrs) in fasted Beagle dog at 10 mg/kg, po by LC/MS analysis
- Type: ADME, organism-based, Canis lupus familiaris
- Set-up: time < 8 hr, dose 10 mg/kg, route oral
- measurement-context: in vivo
property-label: AUC(0-t) at 8 h

Q: Returns the measured AUC(0-t) at 8 h for the input compound. Input: CSc1cc(C)nc(SC)c1NC(=O)CN1CCN(CCSc2nc3ccccc3[nH]2)CC1.Cl
A: 13900 ng·h/mL

----------
- method: Half life in Sprague-Dawley rat at 30 mg/kg, po by LC/MS analysis
- Assay type: ADME, organism-based
- measurement-context: in vivo
property-label: half-life (h)
Could you give me the number in h? Just the number is fine.

Q: Requested field: half-life. Item: CSc1cc(C)nc(SC)c1NC(=O)CN1CCN(CCSc2nc3ncccc3o2)CC1
A: 3.4

Q: Could you do the same for CSc1cc(C)nc(SC)c1NC(=O)CN1CCN(CCSc2nc3ccccc3o2)CC1 , please?
A: 10.1

Q: What do you get for CSc1cc(C)nc(SC)c1NC(=O)CN1CCN(CCSc2nc3ccccc3[nH]2)CC1.Cl ?
A: 2.1

----------
- method: Solubility of the compound in 0.025N HCl
- Format: physicochemical
property-label: solubility (µg/mL)
Write it as a number; the unit µg/mL goes unstated.

Q: For CN(C)c1ccc(NC(=O)N(Cc2cccc(CN(C(=O)Nc3ccc(N(C)C)cc3)C3CCCCCC3)c2)C2CCCCCC2)cc1.Cl.Cl , what is its reported solubility?
A: 10000

----------
- method: Toxicity in rabbit
- Assay type: organism-based, Oryctolagus cuniculus
- measurement-context: in vivo
property-label: NOAEL (mg/kg)
Please respond with the number in mg/kg and leave the unit unwritten.

Q: So what does the record say about NOAEL for CC(C)c1cc(C(C)C)c(CC(=O)NS(=O)(=O)Oc2c(C(C)C)cccc2C(C)C)c(C(C)C)c1 ?
A: 5

----------
- method: Aqueous solubility of the compound at pH 1.2
- Type: physicochemical
- measurement-context: aqueous solution
property-label: solubility (µg/mL)
Numbers only; they are read as µg/mL.

Q: Recorded solubility for CSc1cc(C)nc(SC)c1NC(=O)CN1CCN(CCSc2nc3ncccc3o2)CC1 , please?
A: 33000

Q: And the next one, CC(C)c1cccc(C(C)C)c1NC(=O)CCCCCSc1nc2cccc(CN(C)C)c2o1 ?
A: 400

Q: Same for CSc1cc(C)nc(SC)c1NC(=O)CN1CCN(CCSc2nc3ccccc3[nH]2)CC1.Cl
A: 19000

Q: Again, but for CC(C)c1cccc(C(C)C)c1NC(=O)CCCCCSc1nc2cccc(N(C)C)c2o1
A: 180

----------
- method: Solubility of the compound in pH 1.0 solution
- Assay type: physicochemical
property-label: solubility (µg/mL)
Write down the numeric answer in µg/mL and omit the unit.

Q: Tell me the measured solubility of CC(C)c1cccc(C(C)C)c1NC(=O)NCC1(Cc2ccc(N(C)C)cc2)CCCC1 , please.
A: 2180

----------
- method: Tmax in non-fasted Beagle dog at 10 mg/kg, po by LC/MS analysis
- Type: ADME, organism-based, Canis lupus familiaris
- measurement-context: in vivo
property-label: Tmax (h)
// note: answer is a bare numeric in h

Q: Fill blank: measured Tmax of the compound CSc1cc(C)nc(SC)c1NC(=O)CN1CCN(CCSc2nc3ccccc3[nH]2)CC1.Cl is ____.
A: 2.3
